Ref: patent US4980377A

Tested on: CNS
protocol notes: Neuropsychopharmacological profile as a whole
Type: in vivo, mice and rats
condition label: conclusion of the tests
Structures can show the parent of a compound that is named as a salt.

{"compound": "CNC(C)C(=O)c1ccc(N)cc1 (stereo not shown) [CRL 41 218, dihydrochloride]", "Anticonvulsant effects (overall)": "anticonvulsant effects"}
{"compound": "CC(NC(C)(C)C)C(=O)c1ccc(N)cc1 (stereo not shown)", "Anticonvulsant effects (overall)": "anticonvulsant effects"}

====

Tested on: gravid White New Zealand female rabbits
protocol notes: Teratogenicity in gravid White New Zealand rabbits
Assay type: in vivo, rabbit
condition label: 10 mg/kg daily, day 5 to day 18 of gestation
Each entry below carries its recorded Affected foetuses, number.
Output: the number by itself.

Exam item: GET /values?readout=Affected foetuses, number&item= CCNC(C)C(=O)c1ccc(N)cc1 (stereo not drawn)
Marked response: 0

Exam item: What do you get for CC(C)NCC(=O)c1ccc(N)cc1 [A 14, reference compound] ?
Marked response: 3

Exam item: What do you get for CCCNC(C)C(=O)c1cccc(N)c1 (stereo not drawn) ?
Marked response: 1

Exam item: What do you get for Nc1cccc(C(=O)CN2CCCCC2)c1 [A 19, reference compound] ?
Marked response: 3

Exam item: What do you get for Nc1ccc(C(=O)CCN2CCCCC2)cc1 [A 10, reference compound] ?
Marked response: 4

Exam item: What do you get for CC(C)NCCCC(=O)c1ccc(N)cc1 [A 1, reference compound] ?
Marked response: 4

Exam item: What do you get for CC(C(=O)c1cccc(N)c1)N1CCOCC1 (stereo not drawn) ?
Marked response: 1
